Cited source: ChEMBL document CHEMBL3351431

- experimentSummary: Volume of distribution at steady state in Sprague-Dawley rat at 1 mg/kg, iv
- Assay type: ADME, organism-based
- Design: dose 1 mg/kg, route intravenous
- recordedConditions: in vivo, read-out: Vdss
Label Criterion met for high-side Vd (at or above 0.4 L/kg) and Criterion not met for low-side Vd (below it).

- compound: "Cn1c(C2CCOC2)nc(C(=O)NCc2ccc(F)cc2)c(O)c1=O (racemic)"
  classification: "Criterion not met"
- compound: "Cc1ncnn1-c1cc(F)ccc1CNC(=O)c1nc(C2CCOC2)n(C)c(=O)c1O (racemic)"
  classification: "Criterion met"
- compound: "Cn1c(C2CCOC2)nc(C(=O)NCc2ccc(F)cc2N2CCCCS2(=O)=O)c(O)c1=O (racemic)"
  classification: "Criterion not met"
- compound: "Cn1c(C2CCOC2)nc(C(=O)NCc2ccc(F)cc2N2CCN(C(C)(C)C)S2(=O)=O)c(O)c1=O (racemic)"
  classification: "Criterion not met"
- compound: "CSC1COCC1c1nc(C(=O)NCc2ccc(F)cc2)c(O)c(=O)n1C (racemic)"
  classification: "Criterion not met"
- compound: "COCCN1CCN(c2cc(F)ccc2CNC(=O)c2nc(C3CCOC3)n(C)c(=O)c2O)C1=O (racemic)"
  classification: "Criterion met"

###

Quick reference for AUC among some compounds
- experimentSummary: AUC in Sprague-Dawley rat at 5 mg/kg, po
- Format: ADME, organism-based
- Design: dose 5 mg/kg, route oral
- recordedConditions: plasma

- compound: "CSC1COCC1c1nc(C(=O)NCc2ccc(F)cc2)c(O)c(=O)n1C (racemic)"
  AUC: "39.5 µM·h"
- compound: "Cn1c(C2CCOC2)nc(C(=O)NCc2ccc(F)cc2N2CCCCS2(=O)=O)c(O)c1=O (racemic)"
  AUC: "12.3 µM·h"
- compound: "Cn1c(C2CCOC2)nc(C(=O)NCc2ccc(F)cc2)c(O)c1=O (racemic)"
  AUC: "33.9 µM·h"

###

- experimentSummary: Half life in Sprague-Dawley rat at 1 mg/kg, iv
- Type: ADME, organism-based
- Parameters: dose 1 mg/kg, route intravenous
- recordedConditions: in vivo
recordedEndpoint: half-life (min)

- compound: "Cn1c(C2CCOC2)nc(C(=O)NCc2ccc(F)cc2)c(O)c1=O (racemic)"
  result: 97.8
- compound: "Cc1ncnn1-c1cc(F)ccc1CNC(=O)c1nc(C2CCOC2)n(C)c(=O)c1O (racemic)"
  result: 13.8
- compound: "Cn1c(C2CCOC2)nc(C(=O)NCc2ccc(F)cc2-n2cncn2)c(O)c1=O (racemic)"
  result: 25.2
- compound: "Cn1c(C2CCOC2)nc(C(=O)NCc2ccc(F)cc2N2CCN(C(C)(C)C)S2(=O)=O)c(O)c1=O (racemic)"
  result: 14.4
- compound: "Cn1c(C2CCOCC2)nc(C(=O)NCc2ccc(F)cc2N2CCN(C(C)(C)C)S2(=O)=O)c(O)c1=O"
  result: 13.2
- compound: "Cn1c(C2CCOCC2)nc(C(=O)NCc2ccc(F)cc2)c(O)c1=O"
  result: 34.8

###

Quick reference for Vd among some compounds
- experimentSummary: Volume of distribution at steady state in Sprague-Dawley rat at 1 mg/kg, iv
- Assay type: ADME, organism-based
- Set-up: dose 1 mg/kg, route intravenous
- recordedConditions: in vivo, read-out: Vdss

- compound: "Cn1c(C2CCOCC2)nc(C(=O)NCc2ccc(F)cc2)c(O)c1=O"
  readingUnit: "L/kg"
  Vd: 0.12
- compound: "Cn1c(C2CCOCC2)nc(C(=O)NCc2ccc(F)cc2S(C)(=O)=O)c(O)c1=O"
  readingUnit: "L/kg"
  Vd: 0.13
- compound: "Cn1ncnc1-c1cc(F)ccc1CNC(=O)c1nc(C2CCOC2)n(C)c(=O)c1O (racemic)"
  readingUnit: "L/kg"
  Vd: 0.36
- compound: "Cn1c(C2CCOCC2)nc(C(=O)NCc2ccc(F)cc2N2CCN(C(C)(C)C)S2(=O)=O)c(O)c1=O"
  readingUnit: "L/kg"
  Vd: 0.61
- compound: "Cn1c(C2CCOC2)nc(C(=O)NCc2ccc(F)cc2-n2cncn2)c(O)c1=O (racemic)"
  readingUnit: "L/kg"
  Vd: 0.98
